- System: SK-MEL-2
- run_description: NCI tumour cell line growth inhibition, 48 h
The source made the active and inactive calls. Cut-off read from the data, not from the text of the source: active = GI50 up to about 1.1 µM and inactive = higher.
Use one of these outcomes when replying: active, inactive

CCOP(=O)(OCC)C(F)(F)Cc1cnc(C)c2c1COC(C)(C)O2 :: inactive
O=S(=O)(c1cc(Cl)ccc1Cl)n1ccnc1 :: inactive
Cc1nn(C(=O)c2ccccc2O)c2c1C(c1ccc(O)cc1)SC(=N)N2 (stereo not given) :: inactive

input: // return assay outcome for CC1CCc2sc3nc4n(c(=O)c3c2C1)CC(C)S4 (stereo not given)
output: inactive

input: // return assay outcome for Cc1ccnc(NS(=O)(=O)c2ccc(NC(=O)c3ccc4nc5ccccc5c(Nc5ccc(S(=O)(=O)Nc6nccc(C)n6)cc5)c4c3)cc2)n1
output: inactive

input: // return assay outcome for C=CC1(C)CCC2C(=CCC3C2(C)CC(O)C(O)C3(C)COC2OC(CO)C(O)C(O)C2O)C1 (stereo not given)
output: inactive

input: // return assay outcome for COc1cccc(C23CCCC(C2)NCC3Br)c1OC (stereo not given)
output: inactive
